System: human DGAT1 (Homo sapiens, UniProt O75907) | Read-out: IC50 | Origin: multiple publications
Sequence (O75907 whole entry): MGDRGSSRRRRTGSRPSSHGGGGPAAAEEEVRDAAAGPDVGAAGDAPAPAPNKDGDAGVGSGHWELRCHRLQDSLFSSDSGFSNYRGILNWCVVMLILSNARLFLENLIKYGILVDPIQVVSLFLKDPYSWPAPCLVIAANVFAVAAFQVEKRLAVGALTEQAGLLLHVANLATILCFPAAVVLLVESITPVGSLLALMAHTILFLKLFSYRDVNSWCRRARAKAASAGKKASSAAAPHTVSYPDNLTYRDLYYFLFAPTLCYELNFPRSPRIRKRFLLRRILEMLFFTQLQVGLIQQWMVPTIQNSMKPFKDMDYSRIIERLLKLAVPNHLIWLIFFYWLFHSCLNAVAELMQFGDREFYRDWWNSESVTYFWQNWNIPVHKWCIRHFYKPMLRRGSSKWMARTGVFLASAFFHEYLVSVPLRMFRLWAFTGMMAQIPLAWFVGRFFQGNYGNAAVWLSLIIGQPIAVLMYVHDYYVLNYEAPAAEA
The reply should be a number in nM, with the unit left off.

Use these answered entries as a reference point.
{"columns": ["COMPOUND", "ASSAY_VALUE"],
 "data": [
  ["O=C(Nc1ccc(N2CCN(C(=O)NCCCc3ccccc3)CC2)cc1)c1ccccc1-c1ccc(C(F)(F)F)cc1", 3550],
  ["O=C(CCc1ccco1)Nc1ccc(C2CCN(C(=O)Nc3c(Cl)cccc3Cl)CC2)cc1", 38],
  ["O=C(CCCc1ccccc1)Nc1ccc(N2CCN(C(=O)Nc3c(F)cc(Br)cc3F)CC2)cc1", 120],
  ["O=C(O)CC1CCc2cc(-c3ccc(NC(=O)Nc4cccc(C(F)(F)F)c4)cc3)ccc2C1O (stereo not shown)", 503]
]}

Here "O=C(NCC1CCOCC1)c1ccc(N2CCN(C(=O)Nc3c(Cl)cc(CN4CCCC4)cc3Cl)CC2)cc1" was tested on human DGAT1 (Homo sapiens, UniProt O75907), and its IC50 came to 3980

Test item "COC(=O)c1cc(Cl)c(NC(=O)N2CCN(c3ccc(NC(=O)CCCc4ccccc4)cc3)CC2)c(Cl)c1" ; human DGAT1 (Homo sapiens, UniProt O75907); reported IC50 was 135

* * *

A compilation of published IC50 results with human DGAT1 (Homo sapiens).
Your answer should be a plain number; it is taken to be in nM.

The following compounds have reported results that may help.
{"columns": ["COMPOUND", "IC50 [nM]"],
 "data": [
  ["O=C(O)[C@H]1CC[C@H](OC2CCN(c3ccc(-c4nc5cc(C(F)(F)F)ccc5[nH]4)cn3)CC2)CC1", 2],
  ["CC(N)c1cc(Cl)c(NC(=O)N2CCN(c3ccc(NC(=O)CCCc4ccccc4)cc3)CC2)c(Cl)c1 (centres unmarked)", 10.2],
  ["O=C(CCCc1ccccc1)Nc1ccc(N2CCN(C(=O)Nc3c(Cl)cc(C(=O)NCc4ccncc4)cc3Cl)CC2)cc1", 21.4],
  ["COc1ccc(CC(=O)Nc2ccc([N+]3([O-])CCN(C(=O)Nc4c(Cl)cc(C[N+]5([O-])CCCC5)cc4Cl)CC3)cc2)cc1", 20],
  ["O=C(Nc1ccc(N2CCN(C(=O)NCC3CCCCC3)CC2)cc1)c1ccccc1-c1ccc(C(F)(F)F)cc1", 7590]
]}

Continue with the next compound.
The recorded IC50 with human DGAT1 (Homo sapiens) for "COc1ccc(CC(=O)Nc2ccc(N3CCN(C(=O)Nc4c(Cl)cc(CN5CCCC5)cc4Cl)CC3)cc2)cc1" was 20

* * *

Let's look at some pIC50 data for human DGAT1 (Homo sapiens, UniProt O75907) that I collected from the literature.
pIC50: −log10 of the molar value.
Mark class 0 for pIC50 values under 7, and class 1 for everything at or above.

Example entries and their recorded answers appear below.
{"columns": ["TEST_SMILES", "QUALITATIVE_LABEL"],
 "data": [
  ["O=C(NS(=O)(=O)C(F)(F)F)[C@H]1CC[C@H](OC2CCN(c3ccc(-c4nc5cc(F)ccc5[nH]4)cn3)CC2)CC1", "class 1"],
  ["Cc1ccc(C(=O)Nc2ccc(C3CCN(C(=O)Nc4c(Cl)cccc4Cl)CC3)cc2)c(-c2ccc(C(F)(F)F)cc2)c1", "class 0"],
  ["Nc1ncnc2c1N=C(c1ccc(Br)cc1)C1(CCCC1)O2", "class 0"],
  ["O=C(O)[C@H]1C[C@H](OC2CCN(c3ccc(-c4nc5ccc(C(F)(F)F)cc5[nH]4)cn3)CC2)C1", "class 1"],
  ["O=C(NCc1ccco1)c1ccc(N2CCN(C(=O)Cc3c(Cl)cccc3Cl)CC2)cc1", "class 0"],
  ["O=C(O)C1(COC2CCN(c3ccc(-c4nc5ccccc5[nH]4)cn3)CC2)CCOCC1", "class 0"]
]}

input: Check the entry "CCc1ccccc1NC(=O)N1CCN(c2ccc(NC(=O)CCCc3ccccc3)cc2)CC1" : does pIC50 equal or exceed 7?
output: class 0

input: Decide: is the reported value of pIC50 for "N#Cc1cccc(Nc2nnc(-c3ccc4nc(-c5c(Cl)cccc5Cl)[nH]c4c3)o2)c1" equal to or greater than 7?
output: class 0

input: hey, is pIC50 for this one >= 7? "COc1ccc2nc(-c3ccc(N4CCC(O[C@H]5CC[C@H](N6CC(=O)NS6(=O)=O)CC5)CC4)nc3)[nH]c2n1"
output: class 1

input: Record "CCOC(=O)c1c(C(=O)OCC)c2c(-c3ccccc3)cc(N3CCOCC3)nn2c1C" ; criterion: pIC50 no lower than 7. Met?
output: class 0

input: Check the entry "C[C@]1(C(=O)O)CC[C@H](OC2CCN(c3ccc(-c4nc5ccc(C(F)(F)F)cc5[nH]4)cn3)CC2)CC1" : does pIC50 equal or exceed 7?
output: class 1

* * *

# literature pull: UniProtKB O75907 IC50
Record the value in nM, omitting the unit from your answer.

// solved cases for IC50 follow
{"columns": ["COMPOUND", "IC50 / nM"],
 "data": [
  ["CCC(C(=O)O)c1ccc(-c2ccc(-c3nc(C(N)=O)c(C)nc3C)cc2)c(Cl)c1 (stereo not shown)", 17],
  ["CCn1cc(/C=C/C(=O)N(NC(=O)c2cccc(F)c2)C(C)C)c2ccccc21", 8100]
]}

The reported IC50 value, UniProtKB O75907, for "O=C(Nc1ccc(N2CCN(C(=O)Nc3ccccc3Br)CC2)cc1)c1ccccc1-c1ccc(C(F)(F)F)cc1" reads 1380

* * *

Assembled from different publications: pIC50 for human DGAT1 (Homo sapiens, UniProt O75907).
Note on pIC50: it is the negative log10 of concentration, concentration in mol/L.

These recorded examples may help you get a feel for the data.
{"columns": ["COMPOUND", "ASSAY_SYSTEM", "pIC50"],
 "data": [
  ["O=C(CCCc1ccccc1)Nc1ccc(N2CCN(C(=O)Nc3c(F)cc(Br)cc3Br)CC2)cc1", "human DGAT1 (Homo sapiens, UniProt O75907)", 7.51],
  ["CC(NC(=O)OC(C)(C)C)C(=O)Nc1ccc(C2CCN(C(=O)Nc3c(Cl)cccc3Cl)CC2)cc1 (stereo not drawn)", "human DGAT1 (Homo sapiens, UniProt O75907)", 6.57],
  ["O=C(Cc1ccsc1)Nc1ccc(N2CCN(C(=O)Nc3c(Cl)cccc3Cl)CC2)cc1", "human DGAT1 (Homo sapiens, UniProt O75907)", 7.86],
  ["COC(=O)[C@H]1CC[C@H](c2ccc(NC(=O)c3cc4ccccc4s3)cn2)CC1", "human DGAT1 (Homo sapiens, UniProt O75907)", 5.74],
  ["O=C(CCNc1ccccc1Cl)Nc1ccc(N2CCN(C(=O)Nc3c(Cl)cccc3Cl)CC2)cc1", "human DGAT1 (Homo sapiens, UniProt O75907)", 7.99]
]}

Given the compound "O=C1CN([C@H]2CC[C@@H](OC3CCN(c4ccc(-c5nc6ccccc6[nH]5)cn4)CC3)CC2)S(=O)(=O)N1" and test system human DGAT1 (Homo sapiens, UniProt O75907), the measured pIC50 is 7.35

Known value: human DGAT1 (Homo sapiens, UniProt O75907) pIC50 of the compound "Cc1ccc(CNCC(=O)Nc2ccc(N3CCN(C(=O)Nc4c(Cl)cc(O)cc4Cl)CC3)cc2)c(C)c1" equals 7.36

human DGAT1 (Homo sapiens, UniProt O75907) data for "COc1cc(CNC(=O)c2ccc(N3CCN(C(=O)Cc4c(Cl)cccc4Cl)CC3)cc2)cc(OC)c1" ; its pIC50: 8.02

Here "CC(C)(C)OC(=O)CC(=O)Nc1ccc(N2CCN(C(=O)Nc3c(Cl)cccc3Cl)CC2)cc1" was tested on human DGAT1 (Homo sapiens, UniProt O75907), and its pIC50 came to 8.11

* * *

// cross-study collection: IC50 for human DGAT1 (Homo sapiens, UniProt O75907)
Express the result in nM but write the number alone.

The cases that follow already have their IC50 on record.
{"columns": ["COMPOUND", "IC50 [nM]"],
 "data": [
  ["O=C(O)CC1(O)CCc2cc(-c3ccc(NC(=O)Nc4cccc(C(F)(F)F)c4)cc3)ccc2C1=O (centres unmarked)", 32],
  ["CC(O)c1cc(Cl)c(NC(=O)N2CCN(c3ccc(N(C)C(=O)CCCc4ccccc4)cc3)CC2)c(Cl)c1 (centres unmarked)", 479],
  ["O=C(CC(=O)OCc1ccccc1)Nc1ccc(N2CCN(C(=O)Nc3c(Cl)cc(CN4CCCC4)cc3Cl)CC2)cc1", 29.5]
]}

Memo: "COCCN(C)C(=O)c1cc(Cl)c(NC(=O)N2CCN(c3ccc(NC(=O)CCCc4ccccc4)cc3)CC2)c(Cl)c1" , reported IC50: 10.5

// IC50 value for "CC(C)N(NC(=O)c1ccccc1)C(=O)/C=C/c1cn(C(=O)c2ccccc2)c2ccccc12" : 5700
